Tested on: large crabgrass (Digitaria sanguinalis)
Assay: Test B pre-/postemergence plant response
Assay type: in vivo
Details: 8 g ai/ha, postemergence; 0-100 scale
Measured Crabgrass, Large plant response rating, listed per entry for reference.
Answer with the value's number alone.

Observe how each entry below is paired with its result.
chemical-structure	Crabgrass, Large plant response rating
Cc1nn(C)c(=O)c(-n2nc(-c3ccc(C(F)(F)F)cc3)cc2C)c1O	0
Cc1cc(-c2ccc(Cl)cc2)nn1-c1c(OC(=O)C(C)C)cnn(C)c1=O	70

Turning now to a further compound:
// fetch large crabgrass (Digitaria sanguinalis) Crabgrass, Large plant response rating for CCc1cc(-c2ccc(C(F)(F)F)cc2)nn1-c1c(OS(C)(=O)=O)cnn(C)c1=O 80

###

Test system: corn (Zea mays)
Assay: Test A pre-/postemergence plant response
Type: in vivo
Conditions: Postemergence, 125 g ai/ha; 0 to 100 scale, 0 no effect, 100 complete control
measure: Plant response rating, Corn
Give only the figure.

chemical-structure	Plant response rating, Corn
Cc1cc(-c2ccc(Cl)cc2)nn1-c1c(OS(C)(=O)=O)cnn(C)c1=O	80
COc1ccc(-c2cc(C)n(-c3c(O)cnn(C)c3=O)n2)cc1	0
CCc1cc(-c2ccc(Cl)s2)nn1-c1c(O)cnn(C)c1=O	30
COCc1cc(-c2ccc(Br)cc2)nn1-c1c(O)cnn(C)c1=O	50

Field: next molecule
What Plant response rating, Corn value was documented for this molecule, Cc1c(Br)c(-c2ccc(Br)cc2)nn1-c1c(O)cnn(C)c1=O ? 20

###

System: green foxtail (Setaria viridis)
Assay: Test E pre-/postemergence plant response
Type: in vivo
Settings: 31 g ai/ha, Preemergence, scale 0 to 100
From the text: […] Treated plants and controls were maintained in a greenhouse for 14 to 21 days, after which time all species were compared to controls and visually evaluated. […]
measure: Plant response rating, Foxtail, Green
// return just the number, without any unit appended

Below are worked cases with known answers.
chemical-structure	test-target	Plant response rating, Foxtail, Green
CCc1cc(-c2ccc(C(F)(F)F)cc2)nn1-c1c(O)cnn(C)c1=O	green foxtail (Setaria viridis)	98
CCc1cc(-c2ccc(C(F)(F)F)cc2)nn1-c1c(OS(C)(=O)=O)cnn(C)c1=O	green foxtail (Setaria viridis)	100
CCc1cc(-c2ccc(Cl)cc2)nn1-c1c(OS(C)(=O)=O)cnn(C)c1=O	green foxtail (Setaria viridis)	98
COC(=O)Oc1cnn(C)c(=O)c1-n1nc(-c2ccc(Cl)cc2)cc1C	green foxtail (Setaria viridis)	100

# input for lookup
Please look up its Plant response rating, Foxtail, Green: Cn1ncc(O)c(-c2nn(-c3ccc(Cl)cc3)cc2Br)c1=O 60

###

System: naked crabgrass (Digitaria nuda)
Test: Test E pre-/postemergence plant response
Type: in vivo
Conditions: Postemergence, 31 g ai/ha, scale 0 to 100
# reported Plant response rating, Crabgrass, Naked; entries follow
Give the value as a plain number.

Item under review: CCc1cc(-c2ccc(Cl)cc2)nn1-c1c(OS(C)(=O)=O)cnn(C)c1=O . Reported Plant response rating, Crabgrass, Naked? 80

For CCc1cc(-c2ccc(C(F)(F)F)cc2)nn1-c1c(OS(C)(=O)=O)cnn(C)c1=O then? 98

Field entry: CCc1cc(-c2ccc(Cl)cc2)nn1-c1c(OC(=O)C(C)(C)C)cnn(C)c1=O 95

Can you handle COC(=O)Oc1cnn(C)c(=O)c1-n1nc(-c2ccc(Cl)cc2)cc1C next? 90

Next entry: Cn1ncc(O)c(-c2nn(-c3ccc(Cl)cc3)cc2Br)c1=O 75

###

Listing of entries alongside the reported Plant response rating, Canarygrass.
Tested on: canarygrass (Phalaris minor)
Test: Test B postemergence plant response
Format: in vivo
Details: Postemergence, 16 g ai/ha; scale 0 to 100
Just the number, please, no unit after it.

chemical-structure	test-target	Plant response rating, Canarygrass
CCc1cc(-c2ccc(C(F)(F)F)cc2)nn1-c1c(OS(C)(=O)=O)cnn(C)c1=O	canarygrass (Phalaris minor)	20

Turning to the following compound.
Which Plant response rating, Canarygrass value belongs to CCc1cc(-c2ccc(Cl)cc2)nn1-c1c(OC(=O)C(C)(C)C)cnn(C)c1=O ? 30

###

Tested on: barnyardgrass (Echinochloa crus-galli)
Test: Test B flooded paddy test plant response
Format: in vivo
Settings: Flood (flooded paddy test), 62 g ai/ha; scale 0 to 100, 0 no effect, 100 complete control
# Plant response rating, Barnyardgrass values compiled below
Please reply with the number alone, leaving off any unit.

chemical-structure	measure	quantitative-readout
C#CCOC(=O)Oc1cnn(C)c(=O)c1-n1nc(-c2ccc(Cl)cc2)cc1C	Plant response rating, Barnyardgrass	30
Cn1ncc(O)c(-c2nn(-c3ccc(Cl)cc3)cc2Br)c1=O	Plant response rating, Barnyardgrass	0
Cc1cc(-c2ccc(OC(F)(F)F)cc2)nn1-c1c(OC(=O)OC(C)C)cnn(C)c1=O	Plant response rating, Barnyardgrass	0
CCc1cc(-c2ccc(Cl)cc2)nn1-c1c(OC(=O)OC(C)C)cnn(C)c1=O	Plant response rating, Barnyardgrass	75
COCc1cc(-c2ccc(Br)cc2)nn1-c1c(O)cnn(C)c1=O	Plant response rating, Barnyardgrass	0
COC(=O)Oc1cnn(C)c(=O)c1-n1nc(-c2ccc(Cl)cc2)cc1C	Plant response rating, Barnyardgrass	60
CCc1cc(-c2ccc(F)cc2)nn1-c1c(O)cnn(C)c1=O	Plant response rating, Barnyardgrass	0

Query (compound): CCc1cc(-c2ccc(Cl)c(Cl)c2)nn1-c1c(O)cnn(C)c1=O ; field requested: Plant response rating, Barnyardgrass 0

###

Below, each of the compounds is paired with its reported Plant response rating, Wheat value.
Test system: wheat (Triticum aestivum)
Test: Test B pre-/postemergence plant response
Assay type: in vivo
Details: Preemergence, 62 g ai/ha; 0 to 100 scale, 0 no effect, 100 complete control
Write the value as a bare number.

Sample records with Plant response rating, Wheat:
chemical-structure	Plant response rating, Wheat
Cc1cc(-c2ccc(Cl)cc2)nn1-c1c(OC(=O)c2ccccc2)cnn(C)c1=O	60
Cc1cc(-c2ccc(Cl)cc2)nn1-c1c(OC(=O)OCC(C)C)cnn(C)c1=O	50
CCc1cc(-c2ccc(C(F)(F)F)cc2)nn1-c1c(O)cnn(CC)c1=O	100
CCc1cc(-c2ccc(Cl)cc2)nn1-c1c(OC(=O)OC(C)C)cnn(C)c1=O	100

// returns reported Plant response rating, Wheat for input CCc1cc(-c2ccc(Cl)cc2)nn1-c1c(OC(=O)C(C)(C)C)cnn(C)c1=O 90

###

Tested on: umbrella sedge (Cyperus difformis)
Assay: Test B flooded paddy test plant response
Assay type: in vivo
Conditions: Flood (flooded paddy test), 62 g ai/ha; scale 0 to 100, 0 no effect, 100 complete control
measure: Plant response rating, Sedge, Umbrella
Number, no unit, nothing else.

As a guide, the following entries are already answered.
chemical-structure	test-target	Plant response rating, Sedge, Umbrella
CCc1cc(-c2ccc(Br)cc2)nn1-c1c(O)cnn(C)c1=O	umbrella sedge (Cyperus difformis)	0
Cc1nn(C)c(=O)c(-n2nc(-c3ccc(Br)cc3)cc2C)c1O	umbrella sedge (Cyperus difformis)	0
Cc1cc(-c2ccc(Cl)cc2)nn1-c1c(OS(C)(=O)=O)cnn(C)c1=O	umbrella sedge (Cyperus difformis)	0
CCc1cc(-c2ccc(C(F)(F)F)cc2)nn1-c1c(O)cnn(CC)c1=O	umbrella sedge (Cyperus difformis)	0
CCc1cc(-c2ccc(F)cc2)nn1-c1c(O)cnn(C)c1=O	umbrella sedge (Cyperus difformis)	0

Endpoint output: Plant response rating, Sedge, Umbrella of Cc1cc(-c2ccc(Cl)cc2)nn1-c1c(OC(=O)OCC(C)C)cnn(C)c1=O . Value? 65

Try the molecule Cc1cc(-c2ccc(C(F)(F)F)cc2)nn1-c1c(OC(=O)C(C)(C)C)cnn(C)c1=O 50

###

Plant response rating, Canarygrass reference
Tested on: canarygrass (Phalaris minor)
Experiment: Test C pre-/postemergence plant response
Type: in vivo
Details: Preemergence, 62 g ai/ha; scale 0 to 100, 0 no effect, 100 complete control

Below are worked cases with known answers.
chemical-structure	test-target	Plant response rating, Canarygrass
Cc1cc(-c2ccc(Cl)cc2)nn1-c1c(OS(=O)(=O)c2ccccc2[N+](=O)[O-])cnn(C)c1=O	canarygrass (Phalaris minor)	90
CCc1cc(-c2ccc(C(F)(F)F)cc2)nn1-c1c(OS(C)(=O)=O)cnn(C)c1=O	canarygrass (Phalaris minor)	100
C#CCOC(=O)Oc1cnn(C)c(=O)c1-n1nc(-c2ccc(Cl)cc2)cc1C	canarygrass (Phalaris minor)	95

Look up Plant response rating, Canarygrass for this molecule: CCc1c(C)c(-c2ccc(Cl)cc2)nn1-c1c(O)cnn(C)c1=O 70

Also CCc1cc(-c2ccc(C(F)(F)F)cc2)nn1-c1c(O)cnn(C)c1=O , if possible. 100

###

System: wheat (Triticum aestivum)
Test: Test A pre-/postemergence plant response
Format: in vivo
Settings: Preemergence, 31 g ai/ha; 0 to 100 scale, 0 is no effect, 100 is complete control
# Plant response rating, Wheat annotations
Would you mind answering with just the numeric figure?

molecule	Plant response rating, Wheat
Cn1ncc(O)c(-c2nn(-c3ccc(C(F)(F)F)cc3)cc2Cl)c1=O [Compound 88]	0
COC(=O)Oc1cnn(C)c(=O)c1-n1nc(-c2ccc(Cl)cc2)cc1C [Compound 33]	50
Cc1cc(-c2ccc(Cl)cc2)nn1-c1c(OC(=O)c2ccccc2)cnn(C)c1=O [Compound 48]	30

Plant response rating, Wheat for Cc1cc(-c2ccc(Cl)cc2)nn1-c1c(OS(=O)(=O)c2ccccc2[N+](=O)[O-])cnn(C)c1=O [Compound 51] ? 40
